- procedure-summary: Tmax in SPF ICR mouse at 100 mg/kg, sc
- Assay type: ADME, organism-based
- test-conditions: in vivo
assay-readout: Tmax (min)
Answers are plain numbers, in min.

Lab note: each compound below needs its Tmax filled in.
1. COc1c(N2C[C@H]3CCCN(C(=O)Cn4cc(CN5C(=O)/C(=N/NC(N)=S)c6ccccc65)nn4)[C@H]3C2)c(F)cc2c(=O)c(C(=O)O)cn(C3CC3)c12
2. CO/N=C1/C(=O)N(Cc2cn(CC(=O)N3CCC[C@@H]4CN(c5c(F)cc6c(=O)c(C(=O)O)cn(C7CC7)c6c5OC)C[C@@H]43)nn2)c2ccccc21
3. COc1c(N2C[C@@H]3CCCN[C@@H]3C2)c(F)cc2c(=O)c(C(=O)O)cn(C3CC3)c12

Response:
1: 52; 2: 39; 3: 27

====

- system-tested: DNA gyrase subunit A/DNA gyrase subunit B (Mycobacterium tuberculosis (strain ATCC 25618 / H37Rv), UniProt P9WG45+P9WG47)
- Sequence (P9WG45 whole entry): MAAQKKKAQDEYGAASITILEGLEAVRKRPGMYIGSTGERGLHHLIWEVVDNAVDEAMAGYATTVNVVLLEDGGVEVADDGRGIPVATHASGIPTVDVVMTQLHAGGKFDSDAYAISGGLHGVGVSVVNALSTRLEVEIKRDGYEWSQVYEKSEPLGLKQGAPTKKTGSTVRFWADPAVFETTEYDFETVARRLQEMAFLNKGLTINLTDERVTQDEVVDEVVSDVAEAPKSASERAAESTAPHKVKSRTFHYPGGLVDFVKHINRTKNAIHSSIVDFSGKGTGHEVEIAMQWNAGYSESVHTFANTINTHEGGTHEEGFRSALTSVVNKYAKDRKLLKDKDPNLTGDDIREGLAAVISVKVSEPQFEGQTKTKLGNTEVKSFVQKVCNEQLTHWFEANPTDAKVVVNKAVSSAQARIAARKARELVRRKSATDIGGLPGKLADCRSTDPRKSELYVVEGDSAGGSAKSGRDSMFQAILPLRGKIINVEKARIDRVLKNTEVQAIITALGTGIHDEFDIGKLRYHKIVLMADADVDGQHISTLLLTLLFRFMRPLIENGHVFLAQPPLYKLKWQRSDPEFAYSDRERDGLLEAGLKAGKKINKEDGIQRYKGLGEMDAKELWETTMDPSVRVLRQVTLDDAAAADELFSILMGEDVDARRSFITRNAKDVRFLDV
- Sequence (P9WG47 whole entry): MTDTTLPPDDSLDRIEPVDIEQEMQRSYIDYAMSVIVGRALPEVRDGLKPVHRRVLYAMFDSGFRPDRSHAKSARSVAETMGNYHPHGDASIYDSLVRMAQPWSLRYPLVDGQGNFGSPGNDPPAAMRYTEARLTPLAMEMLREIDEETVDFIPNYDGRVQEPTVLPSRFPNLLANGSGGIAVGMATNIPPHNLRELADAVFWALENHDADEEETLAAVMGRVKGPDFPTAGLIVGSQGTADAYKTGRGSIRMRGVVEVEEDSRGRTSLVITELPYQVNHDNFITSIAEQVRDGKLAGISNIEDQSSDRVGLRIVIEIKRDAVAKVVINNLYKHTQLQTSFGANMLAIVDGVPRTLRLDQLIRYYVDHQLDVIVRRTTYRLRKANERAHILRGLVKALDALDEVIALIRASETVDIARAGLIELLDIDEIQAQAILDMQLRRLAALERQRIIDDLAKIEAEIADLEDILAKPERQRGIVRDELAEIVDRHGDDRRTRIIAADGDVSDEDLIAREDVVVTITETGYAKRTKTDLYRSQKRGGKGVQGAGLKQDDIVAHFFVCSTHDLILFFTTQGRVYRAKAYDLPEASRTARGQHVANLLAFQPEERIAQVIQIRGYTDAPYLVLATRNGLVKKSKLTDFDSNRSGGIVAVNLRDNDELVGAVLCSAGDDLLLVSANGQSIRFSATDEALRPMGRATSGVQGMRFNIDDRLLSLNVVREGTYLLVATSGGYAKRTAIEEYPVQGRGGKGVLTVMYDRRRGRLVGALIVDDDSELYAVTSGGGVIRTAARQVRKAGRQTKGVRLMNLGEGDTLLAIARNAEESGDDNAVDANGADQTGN
- procedure-summary: Inhibition of Mycobacterium tuberculosis DNA gyrase
Give pIC50 for every item shown.
Answers are plain numbers, as −log10 of the molar value.

// worked examples, pIC50 included
{"molecule": "COc1c(N2C[C@H]3CCCN(C(=O)Cn4cc(CN5C(=O)C(=O)c6ccccc65)nn4)[C@H]3C2)c(F)cc2c(=O)c(C(=O)O)cn(C3CC3)c12", "data-value": 5.22}
{"molecule": "CO/N=C1/C(=O)N(Cc2cn(CC(=O)N3CCC[C@@H]4CN(c5c(F)cc6c(=O)c(C(=O)O)cn(C7CC7)c6c5OC)C[C@@H]43)nn2)c2ccccc21", "data-value": 5.07}
{"molecule": "COc1c(N2CCNC(C)C2)c(F)cc2c(=O)c(C(=O)O)cn(C3CC3)c12 (stereo not given)", "data-value": 4.88}
{"molecule": "COc1c(N2C[C@H]3CCCN(C(=O)Cn4cc(CN5C(=O)/C(=N/NC(N)=S)c6ccccc65)nn4)[C@H]3C2)c(F)cc2c(=O)c(C(=O)O)cn(C3CC3)c12", "data-value": 5.17}

Let's switch to this molecule now.
Query: Return reported pIC50; argument: `COc1c(N2C[C@H]3CCCN(C(=O)Cn4cc(CN5C(=O)/C(=N/NC(N)=S)c6cc(F)ccc65)nn4)[C@H]3C2)c(F)cc2c(=O)c(C(=O)O)cn(C3CC3)c12`
Response: 4.98

====

Hi there, I'd appreciate the recorded Cmax for every entry that follows.
- procedure-summary: Cmax in SPF ICR mouse at 100 mg/kg, sc
- Format: ADME, organism-based
- Design: dose 100 mg/kg, route subcutaneous
- test-conditions: in vivo
Note: a bare number is incomplete; add the unit.

Solved entries:
{"compound": "CO/N=C1/C(=O)N(Cc2cn(CC(=O)N3CCC[C@@H]4CN(c5c(F)cc6c(=O)c(C(=O)O)cn(C7CC7)c6c5OC)C[C@@H]43)nn2)c2ccccc21", "Cmax": "3250 ng/mL"}
{"compound": "COc1c(N2C[C@@H]3CCCN[C@@H]3C2)c(F)cc2c(=O)c(C(=O)O)cn(C3CC3)c12", "Cmax": "10800 ng/mL"}

The record that follows has no Cmax shown yet.
Query: Dear colleague, I am looking for the recorded Cmax of the following compound: `COc1c(N2C[C@H]3CCCN(C(=O)Cn4cc(CN5C(=O)/C(=N/NC(N)=S)c6ccccc65)nn4)[C@H]3C2)c(F)cc2c(=O)c(C(=O)O)cn(C3CC3)c12`
Response: 1400 ng/mL
